- EXPERIMENT NOTES: Plasma pharmacokinetics after single and repeat oral dose, LC-MS/MS, non-compartmental analysis
- Assay type: in vivo, Beagle dogs
- TEST CONDITIONS: both sexes, beagle, dog, plasma, po, 0.1 mg/kg, 0.1 mg/kg p.o., day 1 to day 20; read-out: Sapanisertib half-life (range)
MEASURED ENDPOINT: half-life

Qu. I would be grateful if you could share the reported half-life for CC(C)n1nc(-c2ccc3oc(N)nc3c2)c2c(N)ncnc21 .
Ans. 4.8 to 6.8 h

* * *

- EXPERIMENT NOTES: Plasma pharmacokinetics after single and repeat oral dose, LC-MS/MS, non-compartmental analysis
- Type: in vivo, Beagle dogs
- TEST CONDITIONS: both, beagle, dog, plasma, po, […], TMAX (trametinib in plasma), First dose (Day 1); trametinib […] p.o.; median (range), n = 4
MEASURED ENDPOINT: Tmax (h)
Reply numerically in h, unit not repeated.

Qu. Recorded Tmax for CC(=O)Nc1cccc(-n2c(=O)n(C3CC3)c(=O)c3c(Nc4ccc(I)cc4F)n(C)c(=O)c(C)c32)c1 [Trametinib, trametinib dimethyl sulfoxide] , please?
Ans. 1.5
